Below, each entry is listed alongside its reported IC50.
System: K562
procedure-summary: Phototoxicity against human K562 cells irradiated with 3.75 J/cm'2 after 72 hrs by MTT assay
Assay type: functional, cell-based
test-conditions: K562, light or radiation study
readout-kind: IC50 (nM)

structure_string=Cc1ccc(Cn2ccc3c2-c2[nH]c(=O)c(S(=O)(=O)c4ccccc4)cc2CC3)cc1 observed_measurement=2400
structure_string=CCOC(=O)c1cc2c(n1Cc1ccc(C)cc1)-c1[nH]c(=O)c(S(=O)(=O)c3ccccc3)cc1CC2 observed_measurement=1000
structure_string=CCOC(=O)c1cc2c(n1Cc1ccc(OC)cc1)-c1[nH]c(=O)c(S(=O)(=O)c3ccccc3)cc1CC2 observed_measurement=900
structure_string=CCOC(=O)c1cc2c([nH]1)-c1[nH]c(=O)c(S(=O)(=O)c3ccccc3)cc1CC2 observed_measurement=5300
